Tested on: expanded OPCs
Test: cells
Details: alamarBlue viability of expanded OPCs, compound at 1 µM, relative to DMSO control
recordedEndpoint: 1 µM (% DMSO)
Answers are plain numbers, in % DMSO.

Reference set (5 entries):
>>> experimentalvalue("CN(C)CCC=C1c2ccccc2COc2ccccc21 [Doxepin]")
91.6
>>> experimentalvalue("Cn1c(=O)c2[nH]cnc2n(C)c1=O [Theophylline]")
95.8
>>> experimentalvalue("CC(C[N+](C)(C)C)OC(N)=O (stereo not shown) [Bethanechol]")
93.0
>>> experimentalvalue("Nc1nc(F)nc2c1ncn2[C@@H]1O[C@H](CO)[C@@H](O)[C@@H]1O [Fludarabine]")
88.7
>>> experimentalvalue("CCCC(=O)O[C@]1(C(=O)COC(=O)CC)CC[C@H]2[C@@H]3CCC4=CC(=O)CC[C@]4(C)[C@H]3[C@@H](O)C[C@@]21C [Hydrocortisone buteprate]")
102.8

Batch lookup, 1 µM (% DMSO) per entry.
1. CC(C)NCC(O)c1ccc(O)c(O)c1 (stereo not shown) [Isoproterenol]
2. CC(C)OC(=O)C(C)(C)Oc1ccc(C(=O)c2ccc(Cl)cc2)cc1 [Fenofibrate]
3. NC(=O)N1c2ccccc2C=Cc2ccccc21 [Carbamazepine]

A)
1: 94.6; 2: 87.6; 3: 99.7

Batch lookup, 1 µM (% DMSO) per entry.
1. CC(C)(C)NCC(O)c1cc(O)cc(O)c1 (stereo not shown) [Terbutaline]
2. CC(C)N(CCC(C(N)=O)(c1ccccc1)c1ccccn1)C(C)C (stereo not shown) [Disopyramide]

A)
[95.2, 92.1]
